All figures here come from patent US10258039B2.

# Test system: Oryza sativa
# test protocol: Paddy herbicidal activity test, phytotoxicity to transplanted rice
# Assay type: in vivo
# test parameters: 5g a.i./10a; rice transplanted at 2.0 leaf stage; 30 days, 30° C.
Below, each entry is listed alongside its reported phytotoxicity, Oryza sativa.

>  <compound>
O=C(Nc1c([N+](=O)[O-])cnn1-c1nn2c(c1Cl)CCCC2)C1CCCC1

>  <phytotoxicity, Oryza sativa>
1 (1: 10% to less than 20%)

$$$$
>  <compound>
N#Cc1cnn(-c2nn3c(c2Cl)CCCC3)c1NC(=O)C1CC1 [Control agent 4.190, reference compound]

>  <phytotoxicity, Oryza sativa>
9 (9: 90% to less than 100%)

$$$$
>  <compound>
O=C(Nc1c([N+](=O)[O-])cnn1-c1nn2c(c1Cl)CCCC2)C1CC1

>  <phytotoxicity, Oryza sativa>
1 (1: 10% to less than 20%)

$$$$

---

# System: Amaranthus retroflexus
# test protocol: Farming soil treatment test
# Format: in vivo
# test parameters: 5g a.i./10a; soil surface spray prior to weed growth; 30 days, 30° C.
herbicidal efficacy, Amaranthus retroflexus values by entry
property measured: herbicidal efficacy, Amaranthus retroflexus

>  <compound>
O=C(Nc1c([N+](=O)[O-])cnn1-c1nn2c(c1Cl)CCCC2)C1CC1

>  <test system>
Amaranthus retroflexus

>  <measured result>
10 (10: 100%)

$$$$
>  <compound>
CN(C(=O)CC1CC1)c1c(C#N)cnn1-c1nn2c(c1Cl)CCCC2

>  <test system>
Amaranthus retroflexus

>  <measured result>
10 (10: 100%)

$$$$
>  <compound>
O=C(Nc1c([N+](=O)[O-])cnn1-c1nn2c(c1Cl)CCCC2)C1CCCC1

>  <test system>
Amaranthus retroflexus

>  <measured result>
10 (10: 100%)

$$$$
>  <compound>
N#Cc1cnn(-c2nn3c(c2Cl)CCCC3)c1NC(=O)C1CC1 [Control agent 4.190, reference compound]

>  <test system>
Amaranthus retroflexus

>  <measured result>
4 (4: 40% to less than 50%)

$$$$
>  <compound>
O=C(CC1CC1)Nc1c([N+](=O)[O-])cnn1-c1nn2c(c1Cl)CCCC2

>  <test system>
Amaranthus retroflexus

>  <measured result>
10 (10: 100%)

$$$$

---

# phytotoxicity, Oryza sativa listing for each entry below
# Tested on: Oryza sativa
# test protocol: Paddy herbicidal activity test, phytotoxicity to transplanted rice
# Format: in vivo
# test parameters: 1g a.i./10a; rice transplanted at 2.0 leaf stage; 30 days, 30° C.

>  <compound>
N#Cc1cnn(-c2nn3c(c2Cl)CCCC3)c1NC(=O)C1CC1 [Control agent 4.190, reference compound]

>  <phytotoxicity, Oryza sativa>
8 (8: 80% to less than 90%)

$$$$
>  <compound>
O=C(Nc1c([N+](=O)[O-])cnn1-c1nn2c(c1Cl)CCCC2)C1CC1 [Compound 2]

>  <phytotoxicity, Oryza sativa>
1 (1: 10% to less than 20%)

$$$$
